Measured kinase still bound, per cent of control, listed per entry for reference.
# TARGET_DESC: EPHB1 (human) (UniProt P54762)
# Sequence (P54762 whole entry, looked up): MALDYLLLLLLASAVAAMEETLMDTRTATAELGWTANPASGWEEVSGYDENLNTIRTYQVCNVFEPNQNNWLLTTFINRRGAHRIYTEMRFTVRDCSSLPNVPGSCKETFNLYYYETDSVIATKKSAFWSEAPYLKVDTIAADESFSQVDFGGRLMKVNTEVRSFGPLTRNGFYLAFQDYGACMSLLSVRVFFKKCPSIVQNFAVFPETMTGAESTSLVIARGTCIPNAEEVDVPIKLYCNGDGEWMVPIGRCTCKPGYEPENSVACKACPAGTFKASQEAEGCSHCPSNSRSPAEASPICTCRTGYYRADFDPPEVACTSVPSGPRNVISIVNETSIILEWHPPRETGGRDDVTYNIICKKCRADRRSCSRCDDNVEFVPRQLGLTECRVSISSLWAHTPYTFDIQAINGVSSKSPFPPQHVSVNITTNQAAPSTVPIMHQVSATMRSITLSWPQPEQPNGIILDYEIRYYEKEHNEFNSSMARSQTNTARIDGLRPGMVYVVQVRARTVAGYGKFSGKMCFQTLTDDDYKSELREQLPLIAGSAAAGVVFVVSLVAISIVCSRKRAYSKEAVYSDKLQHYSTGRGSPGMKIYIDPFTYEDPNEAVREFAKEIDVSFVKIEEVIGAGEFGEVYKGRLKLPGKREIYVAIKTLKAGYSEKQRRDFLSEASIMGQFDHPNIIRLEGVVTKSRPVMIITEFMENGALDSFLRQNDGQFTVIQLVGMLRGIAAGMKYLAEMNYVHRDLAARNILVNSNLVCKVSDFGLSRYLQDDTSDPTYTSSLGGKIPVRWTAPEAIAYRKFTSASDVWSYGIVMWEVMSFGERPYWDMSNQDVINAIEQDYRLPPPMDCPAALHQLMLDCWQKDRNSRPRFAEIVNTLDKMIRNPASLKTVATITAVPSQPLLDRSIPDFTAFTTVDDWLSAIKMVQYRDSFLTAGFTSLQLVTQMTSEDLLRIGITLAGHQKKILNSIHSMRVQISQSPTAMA
# PROTOCOL_DETAILS: KINOMEscan competition binding
# DETAILS: compound 10.0 µM
Reply numerically in %, unit not repeated.

Completed entries (count: 5):
entry_smiles=O=C(NC1CC1)c1cccc(-c2ccc3c(NC(=O)C4CC4)n[nH]c3c2)c1 result_unit=% reported=100
entry_smiles=CCCS(=O)(=O)Nc1ccc(F)c(C(=O)c2c[nH]c3ncc(-c4ccc(Cl)cc4)cc23)c1F result_unit=% reported=100
entry_smiles=Cc1ccc(NC(=O)c2cccc(C(C)(C)C#N)c2)cc1Nc1ccc2ncn(C)c(=O)c2c1 result_unit=% reported=1
entry_smiles=COc1cc(C(=O)NC2CCN(C)CC2)ccc1Nc1ncc2c(n1)N(C1CCCC1)CCC(=O)N2C(C)C result_unit=% reported=100
entry_smiles=Cc1cc([C@@H](C)Nc2ccccc2C(=O)O)c2nc(N3CCOCC3)cc(=O)n2c1 result_unit=% reported=98

Report kinase still bound, per cent of control, nothing else, for this compound: O=C(O)c1ccc(Nc2ncc3c(n2)-c2ccc(Cl)cc2C(c2c(F)cccc2F)=NC3)cc1 2.2

Report kinase still bound, per cent of control, nothing else, for this compound: Nc1ccc(-c2ccc3ncc4ccc(=O)n(-c5cccc(C(F)(F)F)c5)c4c3c2)cn1 100

Report kinase still bound, per cent of control, nothing else, for this compound: CCOc1cc2ncc(C#N)c(Nc3ccc(OCc4ccccn4)c(Cl)c3)c2cc1NC(=O)/C=C/CN(C)C 98

Report kinase still bound, per cent of control, nothing else, for this compound: Cc1ccc(C(=O)Nc2cccc(C(F)(F)F)c2)cc1Nc1cncc(C(N)=O)c1 1.8
